ASSAY_INFO: yeast display, Sf9 membrane polyspecificity reagent, FACS + sequencing; frameworks hold sequencing errors

{"ENTRY_SEQUENCE": "QVQLVESGGGLVQAGGSLRLSCAASGRTFRVNAMGWYRQAPGKERELVAAITWRGGSTYYADSVKGRFTISRDNAKNTVYLQMNSLKPEDTAVYYCAARYSSSSRRQKSDYWGQGTQVTVSS", "polyreactivity (PSR sort gate)": "high polyreactivity"}
{"ENTRY_SEQUENCE": "QVQLVESGGGLVQAGGSHRLSCAAYGRTFGVYAMGWYRQAPGKERELVAAISSRGGSTYYADSVKGRFTISRDNAKNSVYLQMNSLKPEDTAFYYCAAPWYQGLDYWGQGTQVTVSS", "polyreactivity (PSR sort gate)": "high polyreactivity"}
{"ENTRY_SEQUENCE": "QVQLVESGGGLVQAGGSLRLSCAASGSTFDDYAMGWYRQAPGKERELVAAISSAGTTYYADSVKGRFTISRDNAKNTVYLQMNSLKPEDTAVYYCNTVLYPVWYVNFSLRYRYDYYWGQGTQVTVSS", "polyreactivity (PSR sort gate)": "high polyreactivity"}
{"ENTRY_SEQUENCE": "QVQLVESGGGLVQAGGSLRLSCAASGFTFNSYAMGWYRQAPGKERELVAAISWSGGSTYYADSVKGRFTISRDNAKNTVYLQMNSLKPEDTAVYYCNRDGLSRPYYYWGQGTQVTLSS", "polyreactivity (PSR sort gate)": "high polyreactivity"}
{"ENTRY_SEQUENCE": "QVQLVESGGGLVQAGGSLRLSCAASGRTFYGNAIAWYRQAPGKERELVAAINRGGNTNYADSVKGRFTISRDNAKNTVYLQMNSLKPEDTAVYYCAARPYYRYFEYWGQGTQVTVSS", "polyreactivity (PSR sort gate)": "high polyreactivity"}
{"ENTRY_SEQUENCE": "QVQLVESGGGLDQAGGSLRLTCAASGFTFQVYAMGWYRQAPGKERELVADITSGTSTNYADSVKGRFTSSRDNAKNTVYLQMNSLKPEDTAVYYCANVYTYKSFDYWGQGTQVTVSS", "polyreactivity (PSR sort gate)": "low polyreactivity"}
{"ENTRY_SEQUENCE": "QVQLVESGGGLVQAGGSLRLSCAASGRTFRAYAMGWYRQAPGKERELVAAITASGTSTYYADSVKGRFTISRDNAKNTVYLQMNSLKPEDTAVYYCARGSWRHFRLYGFDYWGQGTQVTVSS", "polyreactivity (PSR sort gate)": "low polyreactivity"}
{"ENTRY_SEQUENCE": "QVQLVESGGGLVQAGGSLRLSCAASGIIFAYNAMGWYRQAPVKERELVAAISVIGGTTYYADSVKGRFTISRDNAKITVYLQMNSLKPEDTAVYYCAVDSVQYGGGYERLHDLYYWGQGTQVTVSS", "polyreactivity (PSR sort gate)": "low polyreactivity"}
{"ENTRY_SEQUENCE": "QVQLVESGGGLVQAGGSLRLSCAASGSIIWLYAMGWYRQAPGKERELVAAISSGGSTYYADSVKGRFTISRDNAKNTVYLQMNSLKPEDTAVYYCAADYWSQSDWWDLTEYEYWGQGTQVTVSS", "polyreactivity (PSR sort gate)": "high polyreactivity"}
{"ENTRY_SEQUENCE": "QVQLVESGGGLVQAGGSLRLTCAASGSTDPYAMGWYRQAPGKERELVARIRYSGGSTYYADSVKGRCTISRDNAKNTVYFQMTSLKPEDTAVYYCAAQSYTYYHHYGYWGQGTQVTVSS", "polyreactivity (PSR sort gate)": "high polyreactivity"}
{"ENTRY_SEQUENCE": "QVQLVESGGGLVQAGGSLRLSCAASGFIFRRYAMGWYGQAPGKERELVAVIRSSGGSTYYADSVKGRFTISRDYAKNTVYLQMISLNPEDTAVYYCAAVSYSSYRYDYWGQGTQVTVSS", "polyreactivity (PSR sort gate)": "high polyreactivity"}
{"ENTRY_SEQUENCE": "QVQLVESGGGLVQAGGSLRLSSAASGRIFRPYAMGWYRPAPGKERELVAIRKSTGSTYYADSVKGRFTISRDNAKITVYLQMNSLKPEHTAVYYCAAPRDWDAGDYWGQGTQVTVSS", "polyreactivity (PSR sort gate)": "high polyreactivity"}
{"ENTRY_SEQUENCE": "QVQLVESGGCLVKAGGSLRLSCAASGSTFHYYPMGWYRQAPGKERELFAAISTSGVRTYYADSVKGRFTISRDNAKNTVYLQMNRLKPEDTAVYYCAARRGYVKGKTYDYWGQGSQVTVSS", "polyreactivity (PSR sort gate)": "high polyreactivity"}
{"ENTRY_SEQUENCE": "QVQLVESAGGLVHAGGSLRLSCAASGFIFWYYAMGWDRQSPGKERELVASISRGGDSTYYADSVKGRFTISRDNAKNTVYVQMNSLKPVDTAVYYCNARGRYRKSERRAFDYWGQGTQVTVSS", "polyreactivity (PSR sort gate)": "high polyreactivity"}
{"ENTRY_SEQUENCE": "QVQLVESGGGLVQAGGSLRLSCAASGRTFKYYAMGWYRQAPGKERELVATITWSGTSTNYADSVKGRFTISRDTANNSVYLQMNSLKPEDTAVYYCAARSKRRNYDYWGQGTQVTVSS", "polyreactivity (PSR sort gate)": "high polyreactivity"}
{"ENTRY_SEQUENCE": "QVQLLESGGGLLQAGGSLRLSCAASGITLIGNAMGWYRQAPGKESELVAAISKSGGNTFYAVSVKGRFTISRDNAKNTVYLQMNSLKPEDTAVYYCAADGYYGYYSQYEYLYYYWGQGTQVTVSS", "polyreactivity (PSR sort gate)": "high polyreactivity"}
{"ENTRY_SEQUENCE": "QDQLVESGGGLVQAGGSLRLSCAASGRTFIRNAMGWYRPAPGKERELVAAISRSGGRTYYADSVKGRFTISRDNAKNTVYLQMNSLKPEDTAVYYCAAGSYQRYAFDYWGQGTQVTVSS", "polyreactivity (PSR sort gate)": "high polyreactivity"}
{"ENTRY_SEQUENCE": "QVQLQESGGGLVQAGGSLRLSCAASGSISGPQVMGWYRQAPGKEREFVAAINVGANTYYADNVKGRFTISRDNAKNTVYLQMTSLKPEDTAVYYCAAVYYGDIGHEYWGQGTQVTVSC", "polyreactivity (PSR sort gate)": "low polyreactivity"}
{"ENTRY_SEQUENCE": "QVQLVESGGGLVQAGGSLRLSCAASGRIFAGYAMGWYRQAPGKERELVAAITGTGDRTYYADSVKGRFTISRDNAKNTVYLQMNSLKPEDTAVYYCAAAYGAYYPWGYDYWGQGTQVTVSS", "polyreactivity (PSR sort gate)": "low polyreactivity"}
{"ENTRY_SEQUENCE": "QVQLQESGDGLVQAVGSLRLSCAASGYSSGYYYMGWYRQAPGKERELVAGIDAFGISTNYADCVKGRFTISRDNAKNTVYLQMTSLKPEDTAVYYCAARPDGDRLFSYWGQGTQVTVSI", "polyreactivity (PSR sort gate)": "low polyreactivity"}
{"ENTRY_SEQUENCE": "QVHLVESGGGLVQAGGSLRLSCAASGSIFQPYAMGWYRQAPGTERELVAAISSSGGSTTYADSVKGRFTISRDKAKNTVYLQMNSLKPEDTAVYYCAAESADDMGYWGQGTQVTVSS", "polyreactivity (PSR sort gate)": "low polyreactivity"}

Source of measurements: the nanobody polyreactivity screen of Harvey et al. (2022)
